- assay.explanation: Oral bioavailability in Sprague-Dawley rat
- Type: ADME, organism-based
- condition: in vivo
property.label: bioavailability (%)

O=C1CCCN1c1ccc(Oc2ccc3c(c2)CCN(C2CCC2)CC3)nc1 51

###

- assay.explanation: Cmax in iv dosed Sprague-Dawley rat
- Format: ADME, organism-based
- Parameters: route intravenous
- condition: in vivo
property.label: Cmax (nM)

O=C1CCCN1c1ccc(Oc2ccc3c(c2)CCN(C2CCC2)CC3)nc1 671

###

- assay.explanation: Total blood clearance in iv dosed cynomolgus monkey
- Type: ADME, organism-based, Macaca fascicularis
- condition: whole blood
property.label: clearance

O=C1CCCN1c1ccc(Oc2ccc3c(c2)CCN(C2CCC2)CC3)nc1 28 mL/min/kg
